Test system: NOMO1
experiment.summary: cell viability relative to DMSO control; higher = less cytotoxic
settings: RPMI 5 mM glucose + 10% FBS; 48 h; 0.0632 µM
outcome.measure: cell viability (%)
Respond numerically; units are % and should not be typed.

Field: example entries. Status: answers known.
{"columns": ["compound", "target.under.test", "cell viability [%]"],
 "data": [
  ["COc1cccc2c1C(=O)c1c(O)c3c(c(O)c1C2=O)C[C@@](O)(C(=O)CO)C[C@@H]3O[C@H]1C[C@H](N)[C@H](O[C@H]2CCCCO2)[C@H](C)O1", "NOMO1", 114],
  ["NC[C@@H]1O[C@H](O[C@H]2[C@@H](O)[C@H](O[C@@H]3[C@@H](O)[C@H](N)C[C@H](N)[C@H]3O[C@H]3O[C@H](CN)[C@@H](O)[C@H](O)[C@H]3N)O[C@@H]2CO)[C@H](N)[C@@H](O)[C@@H]1O.O=S(=O)(O)O.O=S(=O)(O)O.O=S(=O)(O)O", "NOMO1", 111],
  ["N[C@H]2CN(CC12CC1)c3c(F)cc4c(c3Cl)[N@@](C=C(C4=O)C(=O)O)C5C[C@H]5F (stereo partly drawn)", "NOMO1", 90.2]
]}

Need cell viability, item O=C(CS(=O)Cc1ccco1)NC/C=C\COc1cc(CN2CCCCC2)ccn1 (stereo not drawn)
87.1

And for `OC[C@H]1O[C@H](C[C@@H]1O)N2\C=C(F)/C(=O)NC2=O` ?
120

Item: `N\C1=N\C2=C(N=C[N]2COCCO)C(=O)N1`
103

// same read-out, input: CC\12CCC(=O)\C=C1CCC3C2CCC4(C)C3CCC4(O)C#C (stereo not drawn)
86.6

Follow-up entry: `CCOC(=O)N1c2ccc(C(F)(F)F)cc2[C@@H](N(Cc2cc(C(F)(F)F)cc(C(F)(F)F)c2)C(=O)OC)C[C@H]1CC`
129
